Test system: MDA-MB-435
Test: NCI tumour cell line growth inhibition, 48 h
Active and inactive are the calls of the source. Rule as the data show it: active = GI50 up to about 1.1 µM and inactive = higher.
The reply should be one of these categories: true for active, false for inactive

**Query** Which outcome was assigned to `N=C1/C(=C/c2ccc(F)cc2)C(=O)N=C2SC=NN12` in this test?
**Result** false

**Query** // next record `C=CCOc1ccc(N)c([N+](=O)[O-])c1`
**Result** false

**Query** Subsequent entry: `CC(C)(C)c1cc(C(=O)/C=C/C=C/c2ccccc2)cc(C(C)(C)C)c1O`
**Result** false

**Query** And the next one, `N=C(N)SCCc1ccncc1` ?
**Result** false

**Query** And then CCN1CCC(O)(/C=C/c2ccc(C(C)C)cc2)C(C(=O)/C=C/c2ccc(C(C)C)cc2)C1 (stereo not drawn) , what is it?
**Result** false

**Query** Please do the same for OC(CBr)C(O)C(O)C(O)CBr (stereo not drawn) as well.
**Result** false

**Query** Okay, and `C/C(=N\NC(=O)c1ccncc1)c1ccc2ccccc2c1O` ?
**Result** false

**Query** Also, N#CC1(C#N)C2C=CC(C3CC=CC32)C1(C#N)C#N (stereo not drawn) please.
**Result** false

**Query** Then what about the molecule `Cc1nc2ccc(F)cc2c2c1CCN2c1ccccc1` ?
**Result** false

**Query** Thanks! And `COc1ccc(CSC2=C(C#N)C(=O)NC3(CCCCC3)S2)cc1` ?
**Result** false

**Query** Entry `COc1cc(C=O)cc(/C=N/c2ccc(Br)cc2)c1O` please
**Result** true

**Query** Repeat for the following molecule: `NS(=O)(=O)c1nnc(NC(=O)C23CC4CC(CC(C4)C2)C3)s1`
**Result** false

**Query** // next record `COc1cc(-c2cc(-c3ccccc3)nc(-c3c(OC)ccc4c(C)cc(=O)oc34)c2)cc(OC)c1OC`
**Result** false

###

I'd appreciate it if you could supply GI50 values for the items below.
System: SK-OV-3
Assay: NCI tumour cell line growth inhibition, 48 h
The source made the active and inactive calls. Cut-off read from the data, not from the text of the source: active = GI50 up to about 1.1 µM and inactive = higher.

**Query** Param readout= GI50; system= SK-OV-3; entry= `Cc1nc2ccccc2c(=O)n1/N=C(\N=N\c1cc(Cl)ccc1Cl)c1cccc(-c2ccco2)c1` ; returns value.
**Result** > 100 µM (inactive)

**Query** Next record, please: FC(F)(F)C1(Cl)C(Cl)(c2ccccc2)C1(Cl)c1ccccc1 (stereo not drawn)
**Result** 23.1 µM (inactive)

**Query** Moving on to the next compound: COc1c(C2=NC(C(C)C)CO2)ccc2ccccc12 (stereo not drawn)
**Result** > 100 µM (inactive)

**Query** // repeat for CC1=NNC(=O)C1C1CC(c2c[nH]c3ccccc23)=NNC1=S (stereo not drawn) and report
**Result** > 100 µM (inactive)

**Query** Do the same for `CCSc1nnc(CSc2nc(-c3ccccc3)c(-c3ccccc3)[nH]2)n1-c1ccccc1` please
**Result** 26.4 µM (inactive)

**Query** Similarly, `COc1ccc(-c2c(-c3ccccc3)c(C)nc3[nH]c(=S)[nH]c(=S)c23)cc1OC` ?
**Result** 37 µM (inactive)

**Query** Another: COc1ccc(C(C2=C(O)COC2=O)c2cc3c(cc2O)OCO3)cc1OC (stereo not drawn)
**Result** > 100 µM (inactive)

**Query** # iterate: `COc1ccc2c(c1)CCCN2CCCCCCCCCCN(CCC(C)C)CCC(C)C`
**Result** 19.3 µM (inactive)

**Query** Let us now turn to `NCCCCN(CCCN)C(=O)c1ccccc1`
**Result** > 100 µM (inactive)

**Query** Another compound to check: `C/C(CC(O)(C(F)(F)F)C(F)(F)F)=N\NC(N)=O`
**Result** > 10 µM (inactive)

**Query** // next record COc1cc(C2c3cc4c(cc3OC(Nc3ccccc3)C2C)OCO4)cc(OC)c1OC (stereo not drawn)
**Result** 1.08 µM (active)

**Query** Same read-out for C[C@]12CCC3c4ccc(O)cc4CC[C@H]3C1CC(=O)N(CCN1CCCC1)C2=O (stereo partly drawn) ?
**Result** > 10 µM (inactive)

**Query** Moving on to the next compound: `Cc1nc(C)c(C(=O)NNC(=O)C[N+](C)(C)C)cc1C(=O)NNC(=O)C[N+](C)(C)C`
**Result** > 100 µM (inactive)

**Query** What do we get for `CC(C)Cc1c(C#N)c(C#N)c(N)n1Cc1ccccc1` ?
**Result** > 100 µM (inactive)

**Query** # repeat for COc1cccc(C2c3cc4c(cc3OC(NNC(N)=O)C2C)OCO4)c1O (stereo not drawn)
**Result** 5.94 µM (inactive)

**Query** Try this compound too: `CN(C)Cc1cc(C(=O)O)cc(CN(C)C)c1O`
**Result** > 100 µM (inactive)

**Query** Also C=COC(=O)N1C2CCCC(Cl)(C(C)=O)C1CC2 (stereo not drawn) ?
**Result** > 100 µM (inactive)

**Query** Try this compound next: CCN1CCC(O)(c2ccc(Oc3ccc(C)cc3)cc2)C(C(=O)c2ccc(Oc3ccc(C)cc3)cc2)C1 (stereo not drawn)
**Result** 16.1 µM (inactive)

###

System: RPMI-8226
Experiment: NCI tumour cell line growth inhibition, 48 h
Active and inactive are the calls of the source. Cut-off read from the data, not from the text of the source: active = GI50 up to about 1.1 µM and inactive = higher. Non-standard residues stand in square brackets, D forms with d. Residues, ends and D or L forms follow the SMILES beside them. *: point of attachment. X30 = COC1=CC(=O)N(C(=O)[C@@H](O*)C(C)C)[C@H]1Cc1ccccc1; NMeL = CN[C@@H](CC(C)C)C(=O)O; Cbz = O=C(OCc1ccccc1)*
# output must be one of active, inactive

**Query** Test call, this compound: `O=c1c2c3c(sc2nc2n1N=C(c1ccc([N+](=O)[O-])cc1)CS2)CCCC3`
**Result** inactive

**Query** Next record, please: `CCCCCCC(=O)OC[n+]1ccc2c(C)c3[nH]c4ccccc4c3c(C)c2c1`
**Result** active

**Query** What do you get for CC1CC(C(=O)OC2OC(COC3OC(CO)C(OC4OC(C)C(O)C(O)C4O)C(O)C3O)C(O)C(O)C2O)C2CCC3(C)C(=CCC4(C)C3CCC3C(C)(CO)C(O)C(O)CC34C)C2C1C (stereo not given) ?
**Result** inactive

**Query** Next up: COC1=CC(=O)N(C(=O)[C@@H](OC(=O)[C@@H]2CCCN2C(=O)[C@@H]2CCCN2C(=O)[C@H](CC(C)C)N(C)C(=O)[C@@H](NC(=O)[C@@H](NC(=O)OCc2ccccc2)C(C)C)C(C)C)C(C)C)[C@H]1Cc1ccccc1 (Cbz-VV[NMeL]PP-X30)
**Result** inactive

**Query** // query: COC(=O)c1c2c(cc3c1CC1(Cc4cc5c(c(C=O)c4C1)CCC5)C3)CCC2 (stereo not given)
**Result** inactive

**Query** What do you have for `O=C(Cc1csc(-c2nc(CC(=O)NNc3ccccc3)cs2)n1)NNc1ccccc1` ?
**Result** inactive

**Query** Please do the same for COC(=O)c1c2c(cc3c1CC1(Cc4cc5c(c(C(C)=O)c4C1)CCCC5)C3)CCCC2 (stereo not given) as well.
**Result** inactive

**Query** And COc1ccc(/C=C2/SC(c3c(O)ccc4ccccc34)N(NC(=O)CCCCCCCCC(=O)NN3C(=O)/C(=C\c4ccc(OC)c(OC)c4)SC3c3c(O)ccc4ccccc34)C2=O)cc1OC (stereo not given) ?
**Result** active

**Query** Entry to check: CC1NCCc2c1[nH]c1cc(O)ccc21 (stereo not given)
**Result** inactive

**Query** What would you report for `Cc1sc2ccccc2[n+]1CCC(=O)O` ?
**Result** inactive

**Query** Now the same for CC1=NN(c2nc(N)nc(/C(C#N)=C\C3COc4ccccc4C3=O)n2)C(C)(C)C1 (stereo not given)
**Result** inactive

**Query** // repeat for COc1ccc2c(c1)C(=O)CC(C(N)=O)C2 (stereo not given) and report
**Result** inactive

**Query** Also check CCOP(=O)(OCC)C(Cc1cn(S(=O)(=O)c2ccc(C)cc2)cn1)C(=O)O (stereo not given)
**Result** inactive

**Query** Same read-out for `O=C1/C(=C/c2ccccc2)CCc2ccc([N+](=O)[O-])cc21` ?
**Result** active

**Query** And for `CCC[C@H](O)[C@@H](CNc1cc(NC(C)=O)nc(NC(C)=O)n1)N(Cc1ccccc1)Cc1ccccc1` ?
**Result** inactive

**Query** // next record `Cn1nc2ccc3nccc(N(CCO)CCO)c3c2n1`
**Result** inactive

**Query** Now consider `COc1ccc(CCN2C(=O)C=CC2=O)cc1OC` and answer again.
**Result** inactive

**Query** Record: `Cc1cc(C)c(C(=O)c2nnc3ccccc3c2N)c(C)c1`
**Result** inactive

**Query** Check CCOC1=NC(=O)CC(c2ccccc2)S1 (stereo not given) too.
**Result** inactive

**Query** Next: CC(=O)C(C(C)=O)=C1CCCC(O)O1 (stereo not given)
**Result** inactive

**Query** Cool, now `C/C(CN1C(=O)c2ccccc2C1=O)=N\NS(=O)(=O)c1ccc(Cl)cc1`
**Result** inactive

**Query** Check CC[C@@]1(O)CC(OC2CC(N3CCOCC3)C(O)C(C)O2)c2c(O)c3c(c(O)c2[C@H]1O)C(=O)c1cccc(O)c1C3=O (stereo not given in full) too.
**Result** active

**Query** Likewise for `COc1cccc(/C=N/n2c(Cc3ccccc3)n[nH]c2=O)c1` ?
**Result** inactive

**Query** Also O=[N+]([O-])c1cc(C2ON=C(c3ccccc3)N2C23CC4CC(CC(C4)C2)C3)ccc1Cl (stereo not given) ?
**Result** inactive

**Query** Then what about the compound `CCOC(=O)NNC(=O)NCCNC(=O)NNC(=O)OCC` ?
**Result** inactive

Taken from ChEMBL document CHEMBL1201862.
